Target: T1, VACV H3 protein (vaccinia virus, UniProt P07240 1-278)
T1 sequence: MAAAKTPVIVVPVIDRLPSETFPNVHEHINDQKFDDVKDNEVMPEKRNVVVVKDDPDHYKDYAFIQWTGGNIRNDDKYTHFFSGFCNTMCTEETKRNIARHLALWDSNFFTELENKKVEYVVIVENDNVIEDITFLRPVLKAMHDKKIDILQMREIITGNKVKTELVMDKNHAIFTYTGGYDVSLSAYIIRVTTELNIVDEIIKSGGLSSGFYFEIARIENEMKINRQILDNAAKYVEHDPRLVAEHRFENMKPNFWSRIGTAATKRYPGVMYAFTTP
Test: lysate ELISA
As shown below, each of these binders has a reported EC50 value.

binder	unitName	EC50
VACV-315 (antibody, V domains shown, human IgG1, anti-H3) VH: EVQLLESGGGLVQPGGSLKLSCAASGFIFSNYAMGWVRQAPGKGLEWVSALSASDGVTSYADSVKGRFTISRDNSKNTMYLQMNRLRTEDTAIYFCAKGRARVNNIYRYFDHWGQGTLVTVSS VL: QSVLTQPASVSGSPGQSITISCTGTSSDVGAYTFVSWYQHHPGKAPKLIIYEVSNRPSGVSDRFSGSKSGNTASLTISGLQAEDEADYYCNSYTTTSPWVFGGGTQLTVL	ng/mL	2
MPXV-79 (antibody, V domains shown, human IgG1, anti-H3) VH: QVQLVQSGAEVKKPGASVKVSCKASGYSFRSNGISWVRQAPGQGFEWLGWIAAYNGDTKYVQKFQGRLTMTTDTSTDTAYMELWSLRSDDTAVYYCARDPKLGRKGSAFDIWGQGTLVIVSS VL: EIVLTQSPATLSLSPGGRATLSCRASQSVGNYLTWYQQKPGQAPRLLIFDGSTRATGIPARFSGSGSGTDFTLTISSLEPEDFAVYYCLQRSDLYTFGQGTKVDIK	ng/mL	4
VACV-314 (antibody, V domains shown, human IgG3, anti-H3) VH: QVQLVQSGPGLVKPSETLSLTCTVSGGSISSYYWSWIRQPPGKGLEYIGHIYYSGGTKYNPSLRSRVTISVDTSKNQFSLKLTSVTAADTAVYYCARLAGRKPDADSWGQGTLVTVSS VL: QPVLTQEPSLTVSPGGTVTLTCASSTGAVTSGFFPNWLQQKPGQAPRALIYSTNNKHSWTPARFSGSLLGGKAALTLSGVQPEDEAEYYCLLYYGGVVVFGGGTKLTVL	ng/mL	3
MPXV-76 (antibody, V domains shown, human IgG1, anti-H3) VH: EVQLVESGGGLVKPGESLKISCAASGFSFNNAWMNWVRQAPGKGLEWVGRIKTHADGGTTDYAAPVTGRFTISRDDSKNTLSLQMSSLKTEDTAVYYCTTSFTFPRRIFAYWGQGTLV VL: EIVLTQSPATLSLSPGERATLSCRASQSVSSYLAWYQQKPGQAPRLLIYDTSNRATGIPARFSGSGSGTDFTLTISSLEPEDLAVYYCQLRNSWPPTFGPGTKVDIK	ng/mL	8
